Molecular target: TRPV1 expressing dorsal root ganglia neurons (Rattus norvegicus, UniProt O35433)
Construct: Dorsal root ganglia were removed and placed in cold phosphate buffered solution; endogenous in cells
Sequence (O35433 whole entry): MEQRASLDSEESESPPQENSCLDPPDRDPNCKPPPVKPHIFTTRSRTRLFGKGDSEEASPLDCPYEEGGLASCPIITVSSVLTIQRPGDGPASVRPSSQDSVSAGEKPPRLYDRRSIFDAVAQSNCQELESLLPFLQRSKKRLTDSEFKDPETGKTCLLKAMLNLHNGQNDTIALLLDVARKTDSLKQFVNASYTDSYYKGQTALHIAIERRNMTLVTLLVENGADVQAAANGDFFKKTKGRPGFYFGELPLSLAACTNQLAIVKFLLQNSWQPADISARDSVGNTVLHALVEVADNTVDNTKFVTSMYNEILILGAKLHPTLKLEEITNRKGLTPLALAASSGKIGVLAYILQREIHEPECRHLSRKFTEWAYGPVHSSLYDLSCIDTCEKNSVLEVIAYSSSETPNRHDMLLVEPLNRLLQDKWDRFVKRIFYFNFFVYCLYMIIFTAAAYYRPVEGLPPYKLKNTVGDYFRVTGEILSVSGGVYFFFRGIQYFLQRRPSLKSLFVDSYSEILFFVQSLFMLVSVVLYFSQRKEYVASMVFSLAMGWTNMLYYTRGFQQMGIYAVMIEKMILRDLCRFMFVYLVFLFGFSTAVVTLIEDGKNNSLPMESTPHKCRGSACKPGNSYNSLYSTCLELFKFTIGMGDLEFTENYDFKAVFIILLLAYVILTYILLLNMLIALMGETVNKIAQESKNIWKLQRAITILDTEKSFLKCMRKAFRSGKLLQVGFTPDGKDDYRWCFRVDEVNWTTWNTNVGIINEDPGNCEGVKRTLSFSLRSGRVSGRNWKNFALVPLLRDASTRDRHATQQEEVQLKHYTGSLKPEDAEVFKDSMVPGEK
Experiment: Ca2+ fluorescence measurements in cultured rat dorsal root ganglia neurones
Settings: 0.1 μM capsaicin, mean and 95% fiducial limits, read-out: IC50 for inhibition of capsaicin-evoked [Ca2+]i mobilization
assay-endpoint: IC50

Can you look up the measured IC50 of O=C(Nc1ccc(Cl)cc1)c1ccc(-c2cccc3cnccc23)nc1 for me?
0.83 nM

Data origin: patent US8222275B2
